The entries below are paired with their reported Bliss interaction score.
System: S. aureus Newman;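 note: first quartile when negative (synergy) and third quartile when positive (antagonism)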
Experiment: Bliss interaction score (quartile over a dose matrix) (fitness difference); higher = more antagonism (negative = synergy)
readout-type: Bliss interaction score

INSERT INTO results (compound, tested_target, val) VALUES
  ('CO/N=C(\C(=O)N[C@@H]1C(=O)N2C(C(=O)O)=C(COC(N)=O)CS[C@H]12)c1ccco1 [Cefuroxime] + CN[C@H](CC(C)C)C(=O)N[C@H]1C(=O)N[C@@H](CC(N)=O)C(=O)N[C@H]2C(=O)N[C@H]3C(=O)N[C@H](C(=O)N[C@H](C(=O)O)c4cc(O)cc(O)c4-c4cc3ccc4O)[C@H](O)c3ccc(c(Cl)c3)Oc3cc2cc(c3O[C@@H]2O[C@H](CO)[C@@H](O)[C@H](O)[C@H]2O[C@H]2C[C@](C)(N)[C@H](O)[C@H](C)O2)Oc2ccc(cc2Cl)[C@H]1O [Vancomycin]', 'S. aureus Newman', 0.0418),
  ('CO/N=C(\C(=O)N[C@@H]1C(=O)N2C(C(=O)O)=C(COC(N)=O)CS[C@H]12)c1ccco1 [Cefuroxime] + CN1C2=CC=CC=C2N=C3C1=CC=CC3=O [Pyocyanin]', 'S. aureus Newman', -0.0853),
  ('N#CC(C#N)=NNc1cccc(Cl)c1 [CCCP] + O=C(N[C@H](CO)[C@H](O)c1ccc([N+](=O)[O-])cc1)C(Cl)Cl [Chloramphenicol]', 'S. aureus Newman', 0.076),
  ('CO/N=C(\C(=O)N[C@@H]1C(=O)N2C(C(=O)O)=C(COC(C)=O)CS[C@H]12)c1csc(N)n1 [Cefotaxime] + C/C(=C\C(=O)OCCCCCCCCC(=O)O)C[C@@H]1OC[C@H](C[C@@H]2O[C@H]2[C@@H](C)[C@H](C)O)[C@@H](O)[C@H]1O [Pseudomonic acid]', 'S. aureus Newman', 0.022);
